measured on: YopH (Yersinia pestis, UniProt O68720)
Sequence (O68720 1-468): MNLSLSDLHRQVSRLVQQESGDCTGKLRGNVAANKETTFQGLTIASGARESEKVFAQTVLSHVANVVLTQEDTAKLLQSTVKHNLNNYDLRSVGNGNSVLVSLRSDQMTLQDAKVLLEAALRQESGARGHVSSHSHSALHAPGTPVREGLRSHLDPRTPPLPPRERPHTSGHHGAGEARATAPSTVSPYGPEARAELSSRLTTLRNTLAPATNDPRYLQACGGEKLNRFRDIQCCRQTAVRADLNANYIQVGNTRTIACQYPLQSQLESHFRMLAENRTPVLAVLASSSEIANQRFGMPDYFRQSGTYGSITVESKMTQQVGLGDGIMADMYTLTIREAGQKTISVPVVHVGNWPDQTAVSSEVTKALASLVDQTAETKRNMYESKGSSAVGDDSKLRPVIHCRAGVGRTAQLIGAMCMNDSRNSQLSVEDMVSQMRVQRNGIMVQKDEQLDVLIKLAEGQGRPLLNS
experimental details: biochemical
applied conditions: read-out: IC50 Values in μM Against Various Enzymes: YopH
measured attribute: IC50 (µM)
Form entry: value (µM) — number only.

For the molecule CC(C)C[C@H](NC(=O)[C@H](Cc1ccc(OCC(=O)O)cc1)NC(=O)[C@H](CCC(=O)OCc1ccccc1)NC(=O)OCc1ccccc1)C(N)=O , give its reported IC50.
119

Determine from records and report IC50 for CC(C)C[C@H](NC(=O)[C@H](Cc1ccc(OCC(=O)O)c(OCC(=O)O)c1)NC(=O)[C@H](CCC(=O)OCc1ccccc1)NC(=O)OCC1c2ccccc2-c2ccccc21)C(N)=O
19.4

For the molecule CC(C)C[C@H](NC(=O)[C@H](Cc1ccc(OCC(=O)O)cc1)NC(=O)[C@H](CCC(=O)OCc1ccccc1)NC(=O)OCC1c2ccccc2-c2ccccc21)C(N)=O , give its reported IC50.
2.8
